# Experimental details: pH stability: half-lives for P—N bond hydrolysis of model linkers
# Type: physicochemical
# Test context: pH 7.4
Experimental endpoint: ½ Lives for P—N Bond Hydrolysis, pH 7.4 (days)
The reply should be a number in days, with the unit left off.

Observe how each entry below is paired with its result.
CN(CCc1ccccc1)P(=O)(O)OCCCc1cccnc1 [Entry H9] = 2.7
CN(CCc1ccccc1)P(=O)(O)OCCc1cccnc1 [Entry H99] = 1.6
Cc1ccc(C(=O)NC(COP(=O)(O)Nc2ccccc2)C(=O)O)cc1 (stereo not shown) [Entry H159] = 26.7
O=P(O)(NCCc1ccccc1)OCCc1cccnc1 [Entry H97] = 16

Now let's try a different one.
The compound listed as O=P(O)(NCCc1ccccc1)OCCCc1ccccn1 [Entry H41] shows ½ Lives for P—N Bond Hydrolysis, pH 7.4 equal to 11

---

# Experimental details: pH stability: half-lives for P—N bond hydrolysis of model linkers
# Format: physicochemical
# Test context: pH 5.5
Experimental endpoint: ½ Lives for P—N Bond Hydrolysis, pH 5.5

Observe how each entry below is paired with its result.
O=P(O)(NCCc1ccccc1)OCCCc1ccccn1 = 19.3 hr
CN(c1ccccc1)P(=O)(O)OCCCc1ccccn1 = 2.1 hr
Cc1ccc(C(=O)NC(COP(=O)(O)N(C)c2ccccc2)C(=O)O)cc1 (stereo not drawn) = 16.5 min
CN(c1ccccc1)P(=O)(O)OCCCc1cccnc1 = 9.6 hr
CN(CCc1ccccc1)P(=O)(O)OCCCc1ccccc1 = 9.6 hr

Now let's try a different one.
The molecule listed as `O=P(O)(Nc1ccccc1)OCCc1cccnc1` shows ½ Lives for P—N Bond Hydrolysis, pH 5.5 equal to 8 days

---

# Experimental details: pH stability: half-lives for P—N bond hydrolysis of model linkers
# Type: physicochemical
# Test context: pH 6.5
Experimental endpoint: ½ Lives for P—N Bond Hydrolysis, pH 6.5 (result in words)

O=P(O)(Nc1ccccc1)OCCc1cccnc1 = Stable
CN(c1ccccc1)P(=O)(O)OCCc1ccccn1 = Unstable
O=P(O)(NCCc1ccccc1)OCCCc1cccnc1 = Stable
CN(CCc1ccccc1)P(=O)(O)OCCc1ccccn1 = Unstable

---

Each entry below lists one item and its recorded ½ Lives for P—N Bond Hydrolysis, pH 6.5 value.
# Experimental details: pH stability: half-lives for P—N bond hydrolysis of model linkers
# Format: physicochemical
# Test context: pH 6.5

Observe how each entry below is paired with its result.
CN(CCc1ccccc1)P(=O)(O)OCCCc1cccnc1 [Entry H9] = 19.3 hr
Cc1ccc(C(=O)NC(COP(=O)(O)Nc2ccccc2)C(=O)O)cc1 (stereo not drawn) [Entry H159] = 2.0 days

The molecule listed as O=P(O)(Nc1ccccc1)OCCc1cccnc1 [Entry H113] shows ½ Lives for P—N Bond Hydrolysis, pH 6.5 equal to 2 days

---

Each entry below lists one item and its recorded ½ Lives for P—N Bond Hydrolysis, pH 6.5 value.
# Experimental details: pH stability: half-lives for P—N bond hydrolysis of model linkers
# Type: physicochemical
# Test context: pH 6.5
The reply should be a number in hr, with the unit left off.

O=P(O)(Nc1ccccc1)OCCc1ccccn1 = 1.9
CN(CCc1ccccc1)P(=O)(O)OCCc1cccnc1 = 9.6
CN(c1ccccc1)P(=O)(O)OCCCc1ccccn1 = 3.9

Now let's try a different one.
The compound listed as `CN(c1ccccc1)P(=O)(O)OCCc1cccnc1` shows ½ Lives for P—N Bond Hydrolysis, pH 6.5 equal to 19.3

The values you see were collected from patent US10383912B2.
